Listing of entries alongside the reported IC50.
Tested on: AMPA receptor
assay.procedure: Patch clamp, inward currents to AMPA in cultured superior colliculus neurones
Format: cell-based, rat
test.context: AMPA 100 μM, peak currents; read-out: Peak AMPA IC50
measure: IC50 (µM)

INSERT INTO measurements (sample_smiles, measure, readout_unit, measured_result) VALUES
  ('O=c1[nH]nc(O)c2c1cc1cc(Br)ccc1[n+]2[O-]', 'IC50', 'µM', 72.7),
  ('O=c1[nH]nc(O)c2c1cc1cc(F)ccc1[n+]2[O-]', 'IC50', 'µM', 17.6),
  ('O=c1[nH]nc(O)c2c1cc1cc(Cl)ccc1[n+]2[O-]', 'IC50', 'µM', 25);

###

assay.system: NMDA receptor (Mus musculus, UniProt P35438)
Construct: from tissue; host or cells: living mice (albino Swiss males for NMDA and PTZ tests, NMR females for MES)
assay.procedure: NMDA-induced convulsions / lethality test
Type: in vivo
test.context: ip, 0.25 h, i.p., 15 min before induction, read-out: NMDA ID50
measure: ED50

INSERT INTO assay_data (compound, assay_system, measure, measured_result) VALUES
  ('O=c1[nH]nc(O)c2c1cc1cc(Cl)c(Cl)cc1[n+]2[O-] [Mrz 2/518]', 'NMDA receptor (Mus musculus, UniProt P35438)', 'ED50', '> 100 mg/kg'),
  ('O=c1[nH][nH]c(=O)c2nc3ccc(Cl)cc3cc12 [Mrz 2/501]', 'NMDA receptor (Mus musculus, UniProt P35438)', 'ED50', '> 100 mg/kg'),
  ('O=c1[nH][nH]c(=O)c2nc3cc(Cl)c(Br)cc3cc12 [Mrz 2/539]', 'NMDA receptor (Mus musculus, UniProt P35438)', 'ED50', '> 100 mg/kg'),
  ('O=c1[nH][nH]c(=O)c2nc3ccc(F)cc3cc12 [Mrz 2/519]', 'NMDA receptor (Mus musculus, UniProt P35438)', 'ED50', '> 100 mg/kg'),
  ('O=c1[nH][nH]c(=O)c2nc3ccc(Br)cc3cc12 [Mrz 2/503]', 'NMDA receptor (Mus musculus, UniProt P35438)', 'ED50', '> 100 mg/kg');
